protocol_details: chemical genetic growth profiling, strain panel (AID 1159580);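 also: tested at 20 µM; growth read once vehicle control cultures reached saturation at 30 °C; 1 = growth at the plate median or of vehicle wells; lower values mean less growth of the strain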
measurement_setup: S. cerevisiae deletion strains, growth OD, locus YNL209W, strain ssb2, active compounds read low
In all, about 5,500 compounds went through this assay and about 2,000 (36%) were called active. About 18% were inconclusive and are not listed. Some of the results follow.
Examples of compounds with documented normalized growth follow.
API doc: respond with a numeric literal and nothing else, no unit.

{"compound": "COc1ccc2c(c1)OCC(Cc1ccc(OC)c(O)c1)C2=O (stereo unspecified)", "test_value": 0.978}
{"compound": "COc1ccc2oc3ccccc3c(=O)c2c1", "test_value": 0.934}
{"compound": "Clc1ccc(COC(Cn2ccnc2)c2ccc(Cl)cc2Cl)cc1 (stereo unspecified)", "test_value": 0.0633}

Prompt line: What value of normalized growth has been recorded for this entry: "COc1c(C)c2c(c(O)c1C/C=C(\C)CCC(=O)O)C(=O)OC2"
Response line: 0.653

Prompt line: Find the recorded normalized growth belonging to "COc1cc(C)c2c(=O)cc(-c3ccccc3)oc2c1" and report it.
Response line: 0.961

Prompt line: Can you look up the measured normalized growth of "COc1ccc(-c2oc3cc(OC)c(OC)c(OC)c3c(=O)c2OC)cc1" for me?
Response line: 0.989

Prompt line: Look up normalized growth: COc1cc2c(cc1OC)C1(O)C(=O)c3ccc(O)c(C(=O)O)c3OC1CO2 (stereo unspecified)
Response line: 0.989

Prompt line: May I ask what normalized growth has been recorded for COC[C@]12CN(C=O)C3[C@@H]4[C@H](OC)C1[C@]3(C1CC3(O)C(OC)C(O)C4(OC(C)=O)C1C3OC(=O)c1ccccc1)[C@@H](OC)C[C@H]2O (stereo partly specified) ?
Response line: 1

Prompt line: # query: normalized growth of entry Clc1ccc(CSC(Cn2ccnc2)c2ccc(Cl)cc2Cl)cc1 (stereo unspecified)
Response line: 0.0676

Prompt line: I would be grateful if you could share the reported normalized growth for COc1ccc2c(c1)OCC(Cc1ccc(O)c(OC)c1)C2=O (stereo unspecified) .
Response line: 0.988

Prompt line: Can you look up the measured normalized growth of COc1ccc2c(c1)OCC(Cc1ccc(OC)c(OC)c1)C2=O (stereo unspecified) for me?
Response line: 0.987

Prompt line: Name the reported normalized growth value associated with the compound "CC(C)c1nc(N(C)S(C)(=O)=O)nc(-c2ccc(F)cc2)c1/C=C/[C@@H](O)C[C@@H](O)CC(=O)O"
Response line: 1.02

Prompt line: normalized growth lookup needed for COc1ccnc(CS(=O)c2nc3ccc(OC(F)F)cc3[nH]2)c1OC (stereo unspecified) , thanks.
Response line: 1.02

Prompt line: Recorded normalized growth of COc1ccc2nc(S(=O)Cc3ncc(C)c(OC)c3C)[nH]c2c1 (stereo unspecified) , please.
Response line: 0.98

Prompt line: So what does the record say about normalized growth for "COc1ccc(-c2oc3cc(OC)c(OC)c(OC)c3c(=O)c2OC)cc1OC" ?
Response line: 0.993

Prompt line: Would you kindly share the measured normalized growth for O=c1cccc2n1CC1CC2CN2CCCC[C@@H]12 (stereo partly specified) ?
Response line: 0.984
